System: 171881-019-R-J1-PDC tumor spheroid viability
Experiment: Anticancer human tumor 171881-019-R-J1-PDC patient-derived invasive breast carcinoma cell line growth inhibition [PI3K]; active means viability on the fitted dose curve at most 10% of control; inactive means the rest
Conditions: second compound 1 µM; first compound 0.0316 µM; spheroids with HUVEC and MSC
Outcomes: active, inactive

compound	group_label
CNC(=O)c1ccc(N2C(=S)N(c3ccc(C#N)c(C(F)(F)F)c3)C(=O)C2(C)C)cc1F + CC(Nc1ccc2c(c1)OCCn1cc(N3C(=O)OCC3C(F)F)nc1-2)C(N)=O	inactive
CC(C)n1nc(-c2ccc3oc(N)nc3c2)c2c(N)ncnc21 + CC(Nc1ccc2c(c1)OCCn1cc(N3C(=O)OCC3C(F)F)nc1-2)C(N)=O	active
C[C@@H](NC(=O)c1ncnc(N)c1Cl)c1ncc(C(=O)Nc2cc(C(F)(F)F)c(Cl)cn2)s1 + CC(Nc1ccc2c(c1)OCCn1cc(N3C(=O)OCC3C(F)F)nc1-2)C(N)=O	inactive
CCN1CCN(Cc2ccc(Nc3ncc(F)c(-c4cc(F)c5nc(C)n(C(C)C)c5c4)n3)nc2)CC1 + Cc1nc(NC(=O)N2CCCC2C(N)=O)sc1-c1ccnc(C(C)(C)C(F)(F)F)c1	inactive
Cn1nccc1Nc1nccc(-c2ccn(C(CO)c3ccc(Cl)c(F)c3)c(=O)c2)n1 (stereo unspecified) + COc1c(OCCCN2CCOCC2)ccc2c3n(c(=NC(=O)c4cnc(N)nc4)nc12)CCN3	active
CC(Cn1ccc(-c2ccc(C#N)c(Cl)c2)n1)NC(=O)c1cc(C(C)O)[nH]n1 (stereo unspecified) + CC(Nc1ncnc2nc[nH]c12)c1cc2cccc(Cl)c2c(=O)n1-c1ccccc1	inactive
CCN1CCN(Cc2ccc(Nc3ncc(F)c(-c4cc(F)c5nc(C)n(C(C)C)c5c4)n3)nc2)CC1 + CC(Nc1ncnc2nc[nH]c12)c1cc2cccc(Cl)c2c(=O)n1-c1ccccc1	inactive
Cn1ncc(Cl)c1-c1cc(C(=O)NC(CN)Cc2cccc(F)c2)sc1Cl (stereo unspecified) + Cc1nc(NC(=O)N2CCCC2C(N)=O)sc1-c1ccnc(C(C)(C)C(F)(F)F)c1	inactive
CC(C)NCC(C(=O)N1CCN(c2ncnc3c2C(C)CC3O)CC1)c1ccc(Cl)cc1 (stereo unspecified) + CC(Nc1ccc2c(c1)OCCn1cc(N3C(=O)OCC3C(F)F)nc1-2)C(N)=O	inactive
CC1(C)CCC(CN2CCN(c3ccc(C(=O)NS(=O)(=O)c4ccc(NCC5CCOCC5)c([N+](=O)[O-])c4)c(Oc4cnc5[nH]ccc5c4)c3)CC2)=C(c2ccc(Cl)cc2)C1 + CC(Nc1ccc2c(c1)OCCn1cc(N3C(=O)OCC3C(F)F)nc1-2)C(N)=O	inactive
C[C@@H](NC(=O)c1ncnc(N)c1Cl)c1ncc(C(=O)Nc2cc(C(F)(F)F)c(Cl)cn2)s1 + Cc1nc(NC(=O)N2CCCC2C(N)=O)sc1-c1ccnc(C(C)(C)C(F)(F)F)c1	inactive

====

System: 171881-019-R-J1-PDC tumor spheroid viability
Assay: Anticancer human tumor 171881-019-R-J1-PDC cell line growth inhibition [PI3K];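 further: spheroids exposed to compound for 7 days before viability read; 100% = DMSO vehicle-treated spheroids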
Conditions: second compound 0.00316 µM; first compound 0.000316 µM; hits give low values; spheroids with HUVEC and MSC
parameter_measured: viability, T/C (%)

> print(dat)
                                   compound                               test.system  parameter.measured  measurement
1  Cn1ncnc1[C@H]1c2n[nH]c(=O)c3cc(F)cc(c23)N[C@@H]1c1ccc(F)cc1 + CC(Nc1ccc2c(c1)OCCn1cc(N3C(=O)OCC3C(F)F)nc1-2)C(N)=O  171881-019-R-J1-PDC tumor spheroid viability      viability, T/C         85.4
2  CC(C)n1nc(-c2ccc3oc(N)nc3c2)c2c(N)ncnc21 + CC(Nc1ccc2c(c1)OCCn1cc(N3C(=O)OCC3C(F)F)nc1-2)C(N)=O  171881-019-R-J1-PDC tumor spheroid viability      viability, T/C         80.2
3  CC(=O)c1c(C)c2cnc(Nc3ccc(N4CCNCC4)cn3)nc2n(C2CCCC2)c1=O + COc1c(OCCCN2CCOCC2)ccc2c3n(c(=NC(=O)c4cnc(N)nc4)nc12)CCN3  171881-019-R-J1-PDC tumor spheroid viability      viability, T/C         64.3
